System: SK-MEL-5 melanoma
Test: NCI-60 one-dose screen, 48 h
Details: 10 µM unless noted
The panel holds about 83,000 compounds, 20% with a hit somewhere; the sample as a whole holds those more often. Active and inactive are the calls of the source. Rule for the calls: active = growth percent below 10; inactive = the rest.
Allowed answers: Yes for active, No for inactive

Would you please look over these solved cases?
> print(dat)
                                   molecule       assay.target  label.value
1  CC1=Nc2cnc(Nc3ccc(N4CCCCC4)cc3)nc2Nc2ccccc21  SK-MEL-5 melanoma           No
2  C=C(C)[C@@H]1CC[C@]2(CO)CC[C@]3(C)[C@H](CC[C@@H]4[C@@](C)(CCCN)[C@H](C(=C)C)CC[C@]43C)[C@@H]12  SK-MEL-5 melanoma          Yes
3  O=c1oc2ccccc2cc1-c1nn(-c2ccccc2)cc1-c1nn[nH]n1  SK-MEL-5 melanoma           No

Enquiry: Please share the test call associated with `CN(C)Cc1ccc(NC(=O)c2cncc(C#Cc3cnc(N)c4ncccc34)c2)cc1C(F)(F)F` .
Return: No

Enquiry: Now give it for `O=Nc1ccc(NC(=O)Nc2ccc([N+](=O)[O-])cc2)cc1` too.
Return: No

Enquiry: Now give it for O=C(NCCNC(c1ccccc1)C(NCCNC(=O)c1ccccc1)c1ccccc1)c1ccccc1 (stereo not given) too.
Return: No

Enquiry: Now give it for `COc1ccc(C/C(C)=C(\c2ccc(Cl)cc2)c2ccc(OCCN3CCCC3)cc2)cc1` too.
Return: No

* * *

Test system: NCI-H522 lung
Experiment: NCI-60 one-dose screen, 48 h (100 = growth as untreated, 0 = no growth, -100 = all killed)
Conditions: 10 µM unless noted
Procedure: Growth inhibition of the NCI-H522 human Non-Small Cell Lung tumor cell line is measured as a screen for anti-cancer activity. Cells are grown in 96 well plates and exposed to the test compound for 48 hours. Compounds are tested at a single concentration, which is 10^-5 M for most compounds. The reported endpoint is percent growth (GI% or GIPRCNT), where numbers from 0 - 100% represent growth inhibition, and numbers from -100% - 0 represent cell death. […]
Compounds without any hit were thinned out: in the full panel of roughly 83,000, 20% have a hit. Calls of active or inactive are those of the source. How the source made its calls: active means growth percent below 10; inactive means the rest.
MEASUREMENT_KIND: growth

> print(dat)
                                   compound   assay.target  measurement.kind            result
1  CC/C(=C(/c1ccc(O)cc1)c1ccc(OCCN2CCCCC2)cc1)c1ccc(OC)cc1  NCI-H522 lung            growth  74.7% (inactive)
2  CCN1C(=O)N(c2ccccc2)C2NC(=S)N(/N=C/C=C/c3ccccc3OC)C21 (centres undefined)  NCI-H522 lung            growth    9.88% (active)
3       CC(=O)Nc1sc2c(c1-c1nc3ccccc3s1)CNC2  NCI-H522 lung            growth   -12.5% (active)
4  O=C(C[C@]1(O)C(=O)Nc2ccc(Br)cc21)c1ccco1  NCI-H522 lung            growth  88.3% (inactive)
5  COc1ccc(-c2nc(SCC(=O)Nc3nc4ccc(C)cc4s3)[nH]c(=O)c2C#N)cc1OC  NCI-H522 lung            growth   105% (inactive)
6  Cc1nc2sc(C(=O)Nc3cccc4ccccc34)c(N)c2cc1C(=O)c1ccccc1  NCI-H522 lung            growth  15.5% (inactive)
7  COc1ccc(Cl)cc1Nc1nc(C(F)(F)F)ccc1C(=O)N/N=C/c1ccc([N+](=O)[O-])cc1  NCI-H522 lung            growth   -8.55% (active)
8  Nc1cccc(-c2ccc(COc3ccc(CC4SC(=O)NC4=O)cc3)cc2)c1 (centres undefined)  NCI-H522 lung            growth  29.7% (inactive)

Could you report growth for every entry in the following list?
1. Cc1cc(C(=O)CCCC(=O)c2cc(C)c(O)c(C)c2)cc(C)c1O
2. CCCCCc1ccc(S(=O)(=O)Nc2cc(-c3csc(NC(C)=O)n3)ccc2N2CCN(C)CC2)cc1
3. COc1ccc2c(c1)c(-c1nc(-c3ccc4ccccc4c3)cs1)cn2C
4. O=S(O)c1cc(Cl)cc(Cl)c1OCc1ccccc1
5. O=S(=O)(NCCNc1nccc(-c2c(-c3ccc(F)c(O)c3)nc3sccn23)n1)c1ccc(Cl)cc1
6. CC(C)c1ccc2c(c1)CC[C@H]1[C@](C)(C(=O)OCC#CCN3CCCC3)CCC[C@]21C
7. COC(=O)Cn1c2c(c3c(OC)cccc31)C(=O)c1ccccc1-2
8. Cc1cc(=O)oc2cc(Oc3nc(Br)cn4c(Br)cnc34)ccc12

Return:
1: 91.1% (inactive); 2: 67.3% (inactive); 3: 79.2% (inactive); 4: 96.2% (inactive); 5: 22.2% (inactive); 6: 85.8% (inactive); 7: 101% (inactive); 8: 54.8% (inactive)

Could you report growth for every entry in the following list?
1. COc1ccccc1/C=C/C(=O)Nc1ccc(F)cc1
2. CCN(CC)CCN1C(=O)c2c(c3c4ccccc4[nH]c3c3ccc4ccccc4c23)C1=O
3. O=c1cc(-c2ccccc2)nc(SCc2nc3cc(Cl)c(Cl)cc3[nH]2)[nH]1
4. O=[N+]([O-])c1c(O)c(Cl)cc(Cl)c1Cl
5. Cc1nc2ccccc2c(/C=C/c2ccc(F)cc2)c1C(=O)/C=C/c1ccccc1
6. Cc1c2cnccc2c(C)c2c1c1cc(CO)ccc1n2C

Return:
["72.4% (inactive)", "67.8% (inactive)", "85.3% (inactive)", "94.7% (inactive)", "5.78% (active)", "-72.6% (active)"]

Could you report growth for every entry in the following list?
1. Cn1c(C#N)ccc1-c1ccc(F)c(NC(=O)c2ccc(F)cc2)c1
2. C=C(C)[C@@H]1CC[C@]2(CO)CC[C@]3(C)[C@H](CC[C@@H]4[C@@](C)(CCCN)[C@H](C(=C)C)CC[C@]43C)[C@@H]12
3. Cc1cccc(-c2nc(C(C)C)sc2-c2ccnc(NCCCNS(=O)(=O)c3ccc(Cl)cc3)c2)c1
4. O=C(c1ccc(Br)cc1)C(Br)C(c1ccc(Cl)cc1)C(c1ccccc1)[N+](=O)[O-] (centres undefined)
5. COc1ccc(-c2nc3c(c(-c4ccc(Cl)cc4)nn3-c3ccccc3)c(-c3ccccc3)c2C#N)cc1

Return:
1. 76.2% (inactive)
2. -48.6% (active)
3. 55.4% (inactive)
4. 85.7% (inactive)
5. 96.3% (inactive)

Could you report growth for every entry in the following list?
1. c1cc(OCCCCCOc2cccc(-c3nc4ccccc4[nH]3)c2)cc(-c2nc3ccccc3[nH]2)c1
2. O=C(NCc1ccc(Cn2c(=O)sn(-c3ccccc3)c2=O)cc1)OCc1ccc2cccc(O)c2n1
3. Fc1cccc(CNc2c3ccccc3nc3ccccc23)c1
4. COc1cc(/C=C2\C(=O)N(CCCOc3cc(O)c4c(=O)cc(-c5ccccc5)oc4c3)c3ccccc32)cc(OC)c1O

Return:
["-14.8% (active)", "-53.5% (active)", "37.8% (inactive)", "36.4% (inactive)"]

Could you report growth for every entry in the following list?
1. O=C(O)CCCCCCCCCCN1C(=O)/C(=C2/C(=O)N(CC(=O)O)c3ccc(Br)cc32)SC1=S
2. Cc1cccc(N=Nc2cccc(C)c2)c1
3. COc1cccc(-c2cn3nc(-c4cn(C)c5ccccc45)sc3n2)c1
4. C=C(C)[C@@H]1CC[C@]2(C(=O)N3CCNCC3)CC[C@]3(C)[C@H](CC[C@@H]4[C@@](C)(CCC(=O)N5CCNCC5)[C@H](C(=C)C)CC[C@]43C)[C@@H]12
5. O=C(c1c[nH]c2ccccc12)c1n[nH]c(=S)n1-c1ccc([N+](=O)[O-])cc1
6. CCOC(=O)C#Cc1c(C(=O)OCC)nnn1[C@@H]1O[C@H](COC)[C@@H](OC)[C@H]1OC
7. N[C@@H]1CCC[C@H]1NCCCCN1C(=O)c2cccc3cc([N+](=O)[O-])cc(c23)C1=O
8. CCOC(=O)CNC1=C(Cl)C(=O)N(Cc2ccc(Cl)cc2)C1=O

Return:
90.1% (inactive)
97.4% (inactive)
67.6% (inactive)
71.4% (inactive)
84.7% (inactive)
-58.7% (active)
40.6% (inactive)
89.1% (inactive)

* * *

System: NCI-H23 lung
Assay: NCI-60 one-dose screen, 48 h
Conditions: 10 µM unless noted
The panel holds about 83,000 compounds, 20% with a hit somewhere; the sample as a whole holds those more often. The source made the active and inactive calls. How the source made its calls: active means growth percent below 10; inactive means the rest.
Allowed answers: T (active), F (inactive)

Enquiry: Please share the test call associated with `CC(C)Cc1nc(Nc2ccccc2)[nH]c(=O)c1C#N` .
Return: F

Enquiry: Now give it for `O=C1C=C(SCCO)C(=O)c2ccccc21` too.
Return: T

Hey, just so you know, these numbers are from PubChem BioAssay (NCI).
